Test system: M14 melanoma
Experiment: NCI-60 one-dose screen, 48 h (100 = growth as untreated, 0 = no growth, -100 = all killed)
Settings: 10 µM unless noted
This is part of a sample that, as a whole, favours compounds with a hit. Of some 83,000 tested, about 20% had one in any assay.
OBSERVABLE: growth (%)
Numbers only, in %.

// solved cases for growth follow
> print(dat)
                  compound.structure.string  observable  unit.text  reading
1  CS(=O)(=O)c1ccc(-c2nc3ccccn3c2/C=N/Nc2nc(-c3ccc(Br)cc3)cs2)cc1      growth          %      112
2           Cc1cccc2sc(/N=C(\N)C(Br)Br)nc12      growth          %     32.6
3  COc1cc(/C=C/C(=O)c2cc(OC)c(OC)c(OC)c2)ccc1OCc1ccc(F)cc1      growth          %       71

Can you give me growth for all of these, one by one?
1. CC(=O)c1ccc(Nc2nc(SC(C)C)nc(-c3ccccc3)c2C#N)cc1
2. CC(C)(C)OC(=O)N1C(=O)c2c(c3c4ccccc4[nH]c3c3ccc4ccccc4c23)C1=O
3. COc1ccc(-n2c(SCC(=O)Nc3ccc(-c4nc5ccccc5[nH]4)cc3)nc3ccccc3c2=O)cc1
4. Cc1ccc2c(n1)C(=O)C(Cl)=C(Nc1cccc(C(C)C)c1)C2=O

-- reply
1. 118
2. 37.3
3. -26.7
4. 44.7

Can you give me growth for all of these, one by one?
1. O=C(N/N=C/c1ccco1)c1[nH]c2ccc(Br)cc2c1-c1ccccc1
2. NC(=O)c1cc(-c2ccc3ncnc(N4CCc5cc(F)c(Cl)cc54)c3c2)cnc1N
3. CC(=O)Oc1ccccc1C(=O)Nc1ccc(C(=O)/C=C/c2cccs2)cc1

-- reply
1: 11.6; 2: 38.3; 3: 107
